- Test system: Fibroblast
- test_protocol: Incucyte cell viability with human fibroblast; note: filed as whole numbers so only -1 and 0 and 1 occur
- Assay type: toxicity, cell-based
- condition_summary: 6 h, 10 µM, compound concentration 10 uM, replicate number 1, timepoint 6 hours
property_name: Growth Rate
Just the number, please.

Please review the entries below; each comes with its answer.
[
  {
    "molecule": "CC(C)C[C@H](CO)Nc1nc(S[C@@H](C)c2ccccc2)nc2nc(N)sc12",
    "property_name": "Growth Rate",
    "readout_number": 0
  },
  {
    "molecule": "Cc1c(NC(=O)c2cc(C(N)=O)nc3cc(F)ccc23)c(C(F)(F)F)nn1Cc1ccc(C#N)cc1",
    "property_name": "Growth Rate",
    "readout_number": 0
  },
  {
    "molecule": "O=C1O[C@]2(CC[C@H](C(=O)Nc3ccn(-c4ccccc4F)n3)CC2)c2cnccc21",
    "property_name": "Growth Rate",
    "readout_number": 0
  },
  {
    "molecule": "CCC[C@H](Oc1cc(C)c(-n2cc(C(F)(F)F)cn2)c(C)c1)c1ccc(C(=O)NCCC(=O)O)cc1",
    "property_name": "Growth Rate",
    "readout_number": 1
  },
  {
    "molecule": "COc1cc2ncnc(Nc3ccc(F)c(Cl)c3)c2cc1NC(=O)/C=C/CN1CCCCC1 [DACOMITINIB ANHYDROUS]",
    "property_name": "Growth Rate",
    "readout_number": 0
  },
  {
    "molecule": "CC(C)NC(=O)c1ccc(C#Cc2ccncc2)cn1",
    "property_name": "Growth Rate",
    "readout_number": 1
  }
]

Query :: Hello, I am looking for reported Growth Rate with Fibroblast for CN(C)[C@H]1CCN(c2cc(-c3ccccc3)nc3ccnn23)C1 [(S)-ZINC-3573] . Could you help?
Result :: 0

Query :: Hello, I am looking for reported Growth Rate with Fibroblast for CC1(C)C(=O)C(C)(C)c2cc(C(=O)Nc3ccc(C(=O)O)cc3)ccc21 . Could you help?
Result :: 0

Query :: Hello, I am looking for reported Growth Rate with Fibroblast for Cn1cc(CCn2cnc(-c3cnn(C)c3)c2-c2ccc(C#N)cc2)cn1 . Could you help?
Result :: 0

Query :: Hello, I am looking for reported Growth Rate with Fibroblast for Cl.O=C(c1ccc(Nc2nccc(-c3cc4ccccc4s3)n2)cc1)N1CCC(N2CCCC2)CC1 . Could you help?
Result :: 0

----------
Reported Population Apoptotic (%) values for the following compounds.
- Tested on: Fibroblast
- test_protocol: Multiplex assay against human fibroblast
- Assay type: toxicity, cell-based
- condition_summary: 24 h, 1 µM, compound concentration 1 uM, replicate 2
Number first, unit second: that is the form wanted.

[
  {
    "compound": "O=C(Nc1ccc(-c2ccnc(Nc3ccc(N4CCOCC4)cc3)n2)cc1)[C@@H]1CCCN1",
    "result": "60%"
  }
]

Query :: Entry CNC(=O)c1ccc(Nc2nc(OC3CCCC3)c3c(-c4ccc5nc(C)oc5c4)c[nH]c3n2)c(OC)c1 : reported Population Apoptotic (%) = ?
Result :: 100%

Query :: Entry CCn1cc(-c2ccnc3[nH]c(-c4cccc(CN(C)C)c4)cc23)c(-c2ccc(NC(=O)N(C)C)cc2)n1 [GSK-1070916] : reported Population Apoptotic (%) = ?
Result :: 66%

Query :: Entry CN[C@@H]1C[C@H]2O[C@@](C)([C@@H]1OC)n1c3ccccc3c3c4c(c5c6ccccc6n2c5c31)C(=O)NC4 [STAUROSPORINE] : reported Population Apoptotic (%) = ?
Result :: 74%

----------
- System: HEK-293T
- test_protocol: Multiplex assay against HEK293T
- Type: toxicity, cell-based
- condition_summary: human, 48 h, 10 µM, compound concentration 10 uM, replicate 2
Reported Population Membrane Permeable-Phenotype (%) values for the following compounds.
Report as a plain number; the unit % is understood.

Please review the entries below; each comes with its answer.
[
  {
    "compound": "CCCS(=O)(=O)c1nc(NC2CC2)cc(-c2ccc3c(ccn3C3CC(C)(C)NC(C)(C)C3)c2)n1",
    "readout_number": 6
  },
  {
    "compound": "C=C1/C(=C\\C=C2/CCC[C@]3(C)[C@@H]([C@H](C)/C=C/[C@H](C)C(C)C)CC[C@@H]23)C[C@@H](O)C[C@@H]1O [DOXERCALCIFEROL]",
    "readout_number": 6
  },
  {
    "compound": "CNc1cc(Oc2cc(C(=O)Nc3cc(N4CCN(C)CC4)cc(C(F)(F)F)c3)ccc2C)ncn1",
    "readout_number": 20
  }
]

Query :: Entry O=C1N/C(=N/c2ccccc2F)S/C1=C\c1ccc(C(=O)O)cc1 : reported Population Membrane Permeable-Phenotype (%) = ?
Result :: 3

Query :: Entry O=C(Nc1ccc(Cl)cc1)Nc1cccc(-c2cccc(N3CCCC3)n2)c1 : reported Population Membrane Permeable-Phenotype (%) = ?
Result :: 72

Query :: Entry O=C(Cc1ccc(-c2ccc(OCCN3CCOCC3)cc2)cn1)NCc1ccccc1 [TIRBANIBULIN] : reported Population Membrane Permeable-Phenotype (%) = ?
Result :: 9

Query :: Entry Cc1cn(-c2cc(NC(=O)c3ccc(C)c(Nc4nccc(-c5cccnc5)n4)c3)cc(C(F)(F)F)c2)cn1 [NILOTINIB] : reported Population Membrane Permeable-Phenotype (%) = ?
Result :: 1

Query :: Entry CCN1CCN(Cc2ccc(Nc3ncc(F)c(-c4cc(F)c5nc(C)n(C(C)C)c5c4)n3)nc2)CC1.CS(=O)(=O)O : reported Population Membrane Permeable-Phenotype (%) = ?
Result :: 11

----------
- Tested on: Fibroblast
- test_protocol: Multiplex assay against human fibroblast
- Format: toxicity, cell-based
- condition_summary: 24 h, 1 µM, compound concentration 1 uM, replicate 2
Reported Total Cell Count values for the following compounds.
Just the number, please.

Please review the entries below; each comes with its answer.
[
  {
    "compound": "CN1C2CCC1CC(OC(c1ccc(F)cc1)c1ccc(F)cc1)C2.Cl (stereo not drawn)",
    "assay_system": "Fibroblast",
    "Total Cell Count": 82
  },
  {
    "compound": "CN(C)C(=O)C(CCN1CCC(O)(c2ccc(Cl)cc2)CC1)(c1ccccc1)c1ccccc1.Cl [LOPERAMIDE HYDROCHLORIDE]",
    "assay_system": "Fibroblast",
    "Total Cell Count": 68
  }
]

Query :: Hello, I am looking for reported Total Cell Count with Fibroblast for Cl.O=c1c2cccn2c2ccccc2n1CCCN1CCC(c2ccc(Cl)cc2)CC1 . Could you help?
Result :: 147

----------
Reported Population Hoechst High Intensity Objects (%) values for the following molecules.
- System: U2OS
- test_protocol: Multiplex assay against U2OS
- Assay type: toxicity, cell-based
- condition_summary: human, 12 h, 10 µM, compound concentration 10 uM, replicate 2
Report as a plain number; the unit % is understood.

[
  {
    "smiles_input": "C=C1/C(=C\\C=C2/CCC[C@]3(C)[C@@H]([C@H](C)/C=C/[C@H](C)C(C)C)CC[C@@H]23)C[C@@H](O)C[C@@H]1O",
    "assay_system": "U2OS",
    "readout_number": 6
  },
  {
    "smiles_input": "COc1ccc(S(=O)(=O)N(CCO)c2ccccc2CN(C)C/C=C/c2ccc(Cl)cc2)cc1.O=P(O)(O)O",
    "assay_system": "U2OS",
    "readout_number": 16
  }
]

Query :: Entry Cl.O=c1c2cccn2c2ccccc2n1CCCN1CCC(c2ccc(Cl)cc2)CC1 : reported Population Hoechst High Intensity Objects (%) = ?
Result :: 11

----------
- Test system: Fibroblast
- test_protocol: Multiplex assay against human fibroblast
- Type: toxicity, cell-based
- condition_summary: 48 h, 1 µM, compound concentration 1 uM, replicate 2
property_name: Population Mitotic Cells (%)
Report as a plain number; the unit % is understood.

Query :: Entry S=C(NCCCc1c[nH]cn1)NCCCN(Cc1ccc(Cl)c(Cl)c1)c1ccc(Br)cn1 : reported Population Mitotic Cells (%) = ?
Result :: 50

Query :: Entry O=C(Nc1ccc(-c2ccnc(Nc3ccc(N4CCOCC4)cc3)n2)cc1)[C@@H]1CCCN1 : reported Population Mitotic Cells (%) = ?
Result :: 50

Query :: Entry O=C1N/C(=N/c2ccccc2F)S/C1=C\c1ccc(C(=O)O)cc1 : reported Population Mitotic Cells (%) = ?
Result :: 50

----------
Reported Population Tubulin-Different-Phenotype (%) values for the following compounds.
- System: HEK-293T
- test_protocol: Multiplex assay against HEK293T;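 for Population Tubulin-Different-Phenotype (%): share of the cells with healthy nuclei that show this phenotype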
- Type: toxicity, cell-based
- condition_summary: human, 48 h, 1 µM, compound concentration 1 uM, replicate 1
Report as a plain number; the unit % is understood.

[
  {
    "compound": "CN1C2CCC1CC(OC(c1ccc(F)cc1)c1ccc(F)cc1)C2.Cl (stereo unspecified)",
    "readout_number": 67
  },
  {
    "compound": "C=C1/C(=C\\C=C2/CCC[C@]3(C)[C@@H]([C@H](C)/C=C/[C@H](C)C(C)C)CC[C@@H]23)C[C@@H](O)C[C@@H]1O [DOXERCALCIFEROL]",
    "readout_number": 36
  },
  {
    "compound": "CCCS(=O)(=O)c1nc(NC2CC2)cc(-c2ccc3c(ccn3C3CC(C)(C)NC(C)(C)C3)c2)n1",
    "readout_number": 79
  },
  {
    "compound": "Cl.O=c1c2cccn2c2ccccc2n1CCCN1CCC(c2ccc(Cl)cc2)CC1",
    "readout_number": 59
  },
  {
    "compound": "CCc1cccc(CC)c1NC(=O)c1nn(C)c2c1CCc1cnc(Nc3ccc(C(=O)NC4CCN(C)CC4)cc3OC(F)(F)F)nc1-2",
    "readout_number": 46
  }
]

Query :: Hello, I am looking for reported Population Tubulin-Different-Phenotype (%) with HEK-293T for O=C(Nc1ccc(-c2ccnc(Nc3ccc(N4CCOCC4)cc3)n2)cc1)[C@@H]1CCCN1 . Could you help?
Result :: 33
